Source: PubChem BioAssay (NCI)

# System: OVCAR-3 ovarian
# experiment-description: NCI-60 one-dose screen, 48 h (100 = growth as untreated, 0 = no growth, -100 = all killed)
# measurement-setup: 10 µM unless noted
About 83,000 compounds went through this panel and 20% of them were active in at least one assay; those are over-represented in the sample as a whole.
Task for the reader: assign each of the following molecules its reported growth.
Answers are plain numbers, in %.

The cases that follow already have their growth on record.
{"molecule": "Oc1ccccc1-c1nnc(SCc2ccc(O)c3ncccc23)o1", "growth (%)": 29.7}
{"molecule": "Cc1cc(Cl)cc(NS(=O)(=O)c2ccc(-c3cnc(C4CC4)o3)cc2)c1", "growth (%)": -24.3}

Go through the list and state growth for each entry.
1. COc1ccc(S(=O)(=O)NCCCNc2nccc(-n3cnc4ccccc43)n2)cc1
2. CCCCCCCCNC(=O)c1ccc(Cn2c(CCCC)nc3c(N)nc4ccccc4c32)cc1
3. O=C(/C=C1\C=CN(CCCCF)c2ccccc21)n1ccc2ccccc21
4. Brc1cccc(/C=N/Nc2nc(N/N=C/c3cccc(Br)c3)nc(N3CCOCC3)n2)c1
5. O=C(COc1ccc(C2SCC(=O)N2c2ccc(F)cc2)cc1)c1ccccc1 (stereo unspecified)
6. Nc1c(C(=O)c2ccccc2)sc2nc(-c3cnccn3)cc(-c3cccs3)c12

stdout:
1: 105; 2: 69.5; 3: 126; 4: 42.4; 5: 114; 6: 108
